Target: Enoyl-[acyl-carrier-protein] reductase [NADH] FabI (Escherichia coli K-12, UniProt P0AEK4)
Sequence (P0AEK4 whole entry): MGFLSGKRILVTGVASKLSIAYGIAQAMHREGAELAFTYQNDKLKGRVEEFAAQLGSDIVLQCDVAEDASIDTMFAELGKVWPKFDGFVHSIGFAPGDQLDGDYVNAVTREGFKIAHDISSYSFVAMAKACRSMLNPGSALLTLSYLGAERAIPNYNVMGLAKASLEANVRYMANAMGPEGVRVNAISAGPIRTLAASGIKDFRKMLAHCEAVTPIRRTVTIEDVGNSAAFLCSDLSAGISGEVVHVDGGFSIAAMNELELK
Assay: Inhibition of Wild type Escherichia coli FabI
endpoint-name: IC50 (µM)
Give bare numbers, in µM.

Asked: Report IC50 for CC(C)=CCC[C@@H](C)c1ccc(C)c(O)c1 [XANTHORRIZOL]
Given back: 17.1

---

target: Enoyl-[acyl-carrier-protein] reductase [NADH] FabI (Escherichia coli K-12); assay: Inhibition of Escherichia coli FabI using trans-2-[…]-N-acetylcysteamine as substrate by spectrophotometry
endpoint-name: pIC50
One number for each entry, as −log10 of the molar value.

Asked: Quick one: give measured pIC50 for O=C(O[C@@H]1Cc2c(O)cc(O)cc2O[C@@H]1c1cc(O)c(O)c(O)c1)c1cc(O)c(O)c(O)c1 [EPIGALOCATECHIN GALLATE]
Given back: 5.30

---

target: Enoyl-[acyl-carrier-protein] reductase [NADH] FabI (Escherichia coli K-12, UniProt P0AEK4, F203L); experiment: Inhibition of Escherichia coli FabI F203L mutant
endpoint-name: IC50 (µM)
Numbers only, in µM.

Asked: Quick one: give measured IC50 for CC(C)=CCC[C@@H](C)c1ccc(C)c(O)c1 [XANTHORRIZOL]
Given back: 75.7

---

biological target: Enoyl-[acyl-carrier-protein] reductase [NADH] FabI (Escherichia coli K-12, UniProt P0AEK4, G93V); assay: Inhibition of Escherichia coli FabI G93V mutant
endpoint-name: pIC50
Numbers only, as −log10 of the molar value.

Asked: Indicate the recorded pIC50 value for this compound: CC(C)=CCC[C@@H](C)c1ccc(C)c(O)c1
Given back: 4.70

---

target: Enoyl-[acyl-carrier-protein] reductase [NADH] FabI (Escherichia coli K-12, UniProt P0AEK4, Y156V); assay: Inhibition of Escherichia coli FabI Y156V mutant
endpoint-name: pIC50
One number for each entry, as −log10 of the molar value.

Asked: Note down pIC50 recorded for CC(C)=CCC[C@@H](C)c1ccc(C)c(O)c1
Given back: 4.42

All values here come from ChEMBL document CHEMBL4673265.
